Assign Fold increase h-GABA-A α5β3γ2 oocyte to each entry below.
subjectOfTest: h-GABA-A α5β3γ2 (Homo sapiens (Human), UniProt P18507+P31644)
Sequence (P31644 32-462): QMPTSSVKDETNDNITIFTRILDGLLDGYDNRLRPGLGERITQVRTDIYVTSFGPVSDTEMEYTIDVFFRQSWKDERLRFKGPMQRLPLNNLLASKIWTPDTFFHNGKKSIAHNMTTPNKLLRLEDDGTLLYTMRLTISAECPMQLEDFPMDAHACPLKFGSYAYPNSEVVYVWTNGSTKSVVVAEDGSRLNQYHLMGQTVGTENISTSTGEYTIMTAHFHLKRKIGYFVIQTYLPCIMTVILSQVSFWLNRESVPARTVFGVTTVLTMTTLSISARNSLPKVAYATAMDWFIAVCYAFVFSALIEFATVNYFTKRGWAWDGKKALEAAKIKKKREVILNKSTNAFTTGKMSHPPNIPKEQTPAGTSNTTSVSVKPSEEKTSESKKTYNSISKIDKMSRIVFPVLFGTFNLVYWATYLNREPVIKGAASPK
Sequence (P28472 26-473 partner): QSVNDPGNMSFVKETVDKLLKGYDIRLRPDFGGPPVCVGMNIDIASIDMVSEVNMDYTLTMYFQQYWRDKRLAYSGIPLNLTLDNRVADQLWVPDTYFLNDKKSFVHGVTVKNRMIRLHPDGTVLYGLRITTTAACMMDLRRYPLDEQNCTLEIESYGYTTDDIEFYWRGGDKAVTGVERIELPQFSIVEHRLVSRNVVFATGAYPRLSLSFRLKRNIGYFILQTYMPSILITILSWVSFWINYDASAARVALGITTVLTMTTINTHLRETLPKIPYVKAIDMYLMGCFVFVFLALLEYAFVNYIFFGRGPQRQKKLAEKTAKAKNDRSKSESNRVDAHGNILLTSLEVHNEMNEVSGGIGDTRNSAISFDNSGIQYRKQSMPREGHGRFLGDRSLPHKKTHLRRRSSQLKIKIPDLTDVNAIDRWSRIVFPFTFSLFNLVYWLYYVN
Sequence (P18507 40-475): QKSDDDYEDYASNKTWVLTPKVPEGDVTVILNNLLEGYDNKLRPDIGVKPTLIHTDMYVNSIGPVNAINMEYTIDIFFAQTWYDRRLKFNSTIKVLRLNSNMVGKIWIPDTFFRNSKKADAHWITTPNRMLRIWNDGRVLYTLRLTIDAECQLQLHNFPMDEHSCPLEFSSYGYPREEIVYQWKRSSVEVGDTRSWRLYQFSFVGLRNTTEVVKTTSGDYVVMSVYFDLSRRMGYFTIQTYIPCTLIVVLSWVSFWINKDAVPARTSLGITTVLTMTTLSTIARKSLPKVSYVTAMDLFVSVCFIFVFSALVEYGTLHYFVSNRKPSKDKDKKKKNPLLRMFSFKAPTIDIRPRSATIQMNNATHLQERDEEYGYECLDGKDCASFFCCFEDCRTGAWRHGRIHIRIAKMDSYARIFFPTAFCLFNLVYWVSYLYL
procedureDetails: Two-electrode voltage clamp electrophysiology in Xenopus oocytes expressing GABAA receptors, modulation of GABA EC20 current
Type: cell-based
conditionContext: Xenopus oocytes, GABA EC20, test compound at approx. 30 fold its Ki
Method: Xenopus laevis oocytes at maturation stages V-VI were used for the expression of cloned mRNA encoding GABAA receptor subunits. Oocytes ready for RNA micro-injection were bought from Ecocyte, Castrop-Rauxel, Germany and stored in modified Barth's medium (composition in mM: NaCl 88, KCl 1, NaHCO32.4, HEPES 10, MgSO4 0.82, CaNO3 0.33, CaCl2) 0.33, pH=7.5) at 20° C. until the experiment. […]
The answer should be a number; do not append a unit.

Lookup result for CCC[C@@H](CO)NC(=O)c1ccc(OCc2c(-c3ccc(C)nc3)noc2C)nn1 [Example 7] ; measured Fold increase h-GABA-A α5β3γ2 oocyte: 2.02

Lookup result for Cc1ccc(-c2noc(C)c2COc2ccc(C(=O)N3CC(C)(O)C3)nn2)cn1 [Example 56] ; measured Fold increase h-GABA-A α5β3γ2 oocyte: 1.64

Lookup result for Cc1ccc(-c2noc(C)c2COc2cnc(C(=O)NCCCC(F)(F)F)cn2)cn1 [Example 115] ; measured Fold increase h-GABA-A α5β3γ2 oocyte: 2.39

Lookup result for Cc1ccc(-c2noc(C)c2COc2cnc(C(=O)N[C@@H]3CCOC3)cn2)cn1 [Example 89] ; measured Fold increase h-GABA-A α5β3γ2 oocyte: 1.31

Lookup result for Cc1ccc(-c2noc(C)c2COc2ccc(C(=O)NC3(C)COC3)nn2)cn1 [Example 83] ; measured Fold increase h-GABA-A α5β3γ2 oocyte: 1.96
